system: Peritoneal macrophage; experiment: Antiinflammatory activity in C57BL/6J mouse Primary peritoneal macrophages assessed as inhibition of LPS-stimulated IL-6 expression preincubated for 30 mins followed by LPS stimulation measured after 24 hrs by ELISA; format: functional, cell-based
reported-property: pIC50
// scale note: pIC50 = -log10(conc_M); give the bare number

Here are 3 molecules together with their reported answers.
1) S=C(Sn1ccc2ccccc21)N1CCCCCC1 :: 7.06
2) Cc1cn(SC(=S)N(C)C)c2ccccc12 :: 7.84
3) COc1cccc2c1ccn2SC(=S)N(C)C :: 7.15

Next molecule, please.
Exercise: Report pIC50 for S=C(Sn1ccc2ccccc21)N1CCSCC1
Solution: 7.06
